meta.source: patent US20200270309A1

# Test system: carrageenan-induced toe swelling
# procedure summary: Carrageenan-induced toe swelling in rats
# Format: in vivo
# assay setup: SD rats, 4.0 mg/kg once a day for 3 d, 3 h after carrageenan
Peptide text beside a SMILES is read from it. * marks the point of attachment. X84 = O=C1C=CC(=O)N1c1ccccc1CCCCCCCCCCCCC(=O)*; X59 = O=C1C=CC(=O)N1c1cccc(CCCCCCCCC(=O)*)c1; X72 = O=C1C=CC(=O)N1c1ccccc1CCCCCCCCCCC(=O)*; X66 = O=C1C=CC(=O)N1c1cccc(CCCCCCCC(=O)*)c1; X63 = O=C1C=CC(=O)N1c1ccccc1CCCCCCC(=O)*; X75 = O=C1C=CC(=O)N1c1cccc(CC(=O)*)c1
quantity name: Swelling degree 3 h (mg)
// return numeric value only (unit: mg, not printed)

INSERT INTO measurements (molecule, tgt, quantity_name, test_value) VALUES
  ('C[C@H](NC(=O)CNC(=O)[C@H](CCCNC(=N)N)NC(=O)CCCCCCCCCCCCc1ccccc1N1C(=O)C=CC1=O)C(=O)N[C@@H](CC(=O)O)C(=O)N[C@@H](CCCNC(=N)N)C(=O)N[C@@H](C)C(=O)NCC(=O)NCC(=O)NCC(=O)NCC(=O)N[C@@H](CCCNC(=N)N)C(=O)NCC(=O)N[C@@H](CC(=O)O)C(=O)O [X24] (X84-RGADRAGGGGRGD-OH)', 'carrageenan-induced toe swelling', 'Swelling degree 3 h', 0.35),
  ('C[C@H](NC(=O)CNC(=O)[C@H](CCCNC(=N)N)NC(=O)Cc1cccc(N2C(=O)C=CC2=O)c1)C(=O)N[C@@H](CC(=O)O)C(=O)N[C@@H](CCCNC(=N)N)C(=O)N[C@@H](C)C(=O)NCC(=O)NCC(=O)NCC(=O)NCC(=O)N[C@@H](CCCNC(=N)N)C(=O)NCC(=O)N[C@@H](CC(=O)O)C(=O)O [X25] (X75-RGADRAGGGGRGD-OH)', 'carrageenan-induced toe swelling', 'Swelling degree 3 h', 0.36),
  ('C[C@H](NC(=O)CNC(=O)[C@H](CCCNC(=N)N)NC(=O)CCCCCCCCc1cccc(N2C(=O)C=CC2=O)c1)C(=O)N[C@@H](CC(=O)O)C(=O)N[C@@H](CCCNC(=N)N)C(=O)N[C@@H](C)C(=O)NCC(=O)NCC(=O)NCC(=O)NCC(=O)N[C@@H](CCCNC(=N)N)C(=O)NCC(=O)N[C@@H](CC(=O)O)C(=O)O [X32] (X59-RGADRAGGGGRGD-OH)', 'carrageenan-induced toe swelling', 'Swelling degree 3 h', 0.33),
  ('C[C@H](NC(=O)CNC(=O)[C@H](CCCNC(=N)N)NC(=O)CCCCCCCCCCc1ccccc1N1C(=O)C=CC1=O)C(=O)N[C@@H](CC(=O)O)C(=O)N[C@@H](CCCNC(=N)N)C(=O)N[C@@H](C)C(=O)NCC(=O)NCC(=O)NCC(=O)NCC(=O)N[C@@H](CCCNC(=N)N)C(=O)NCC(=O)N[C@@H](CC(=O)O)C(=O)O [X22] (X72-RGADRAGGGGRGD-OH)', 'carrageenan-induced toe swelling', 'Swelling degree 3 h', 0.31),
  ('C[C@H](NC(=O)CNC(=O)[C@H](CCCNC(=N)N)NC(=O)CCCCCCc1ccccc1N1C(=O)C=CC1=O)C(=O)N[C@@H](CC(=O)O)C(=O)N[C@@H](CCCNC(=N)N)C(=O)N[C@@H](C)C(=O)NCC(=O)NCC(=O)NCC(=O)NCC(=O)N[C@@H](CCCNC(=N)N)C(=O)NCC(=O)N[C@@H](CC(=O)O)C(=O)O [X18] (X63-RGADRAGGGGRGD-OH)', 'carrageenan-induced toe swelling', 'Swelling degree 3 h', 0.39);

Task: Query Swelling degree 3 h on carrageenan-induced toe swelling for C[C@H](NC(=O)CNC(=O)[C@H](CCCNC(=N)N)NC(=O)CCCCCCCc1cccc(N2C(=O)C=CC2=O)c1)C(=O)N[C@@H](CC(=O)O)C(=O)N[C@@H](CCCNC(=N)N)C(=O)N[C@@H](C)C(=O)NCC(=O)NCC(=O)NCC(=O)NCC(=O)N[C@@H](CCCNC(=N)N)C(=O)NCC(=O)N[C@@H](CC(=O)O)C(=O)O [X31] (X66-RGADRAGGGGRGD-OH)
Result: 0.36
